The values you see were collected from patent US20030148958A1.

# EXPERIMENTAL TARGET: T1, CRF2R; also: reference of the scale not given here
# T1 sequence (Q13324 whole entry, species assumed, looked up): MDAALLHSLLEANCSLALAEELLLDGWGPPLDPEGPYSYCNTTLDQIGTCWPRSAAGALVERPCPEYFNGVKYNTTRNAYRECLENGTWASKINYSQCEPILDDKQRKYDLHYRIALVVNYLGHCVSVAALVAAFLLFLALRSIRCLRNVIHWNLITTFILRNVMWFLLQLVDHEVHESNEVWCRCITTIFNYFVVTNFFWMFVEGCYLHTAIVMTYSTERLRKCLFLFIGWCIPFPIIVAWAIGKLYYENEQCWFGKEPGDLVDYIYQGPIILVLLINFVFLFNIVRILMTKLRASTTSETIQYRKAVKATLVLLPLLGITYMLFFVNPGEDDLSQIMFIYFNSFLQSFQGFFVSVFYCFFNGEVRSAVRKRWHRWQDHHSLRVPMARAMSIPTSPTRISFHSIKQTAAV
# ASSAY METHOD TEXT: cell-based or functional assay
MEASURED PARAMETER: CRF2R Emax % (%)
Provide the reading as a plain figure in %.

BINDER | MEASURE UNIT | CRF2R Emax %
ZGPPISIDLPFQLLRKVIEIEKQEKEKQQAANNANLLANI (not fully specified; C-terminal amide) [SEQ ID NO 275] | % | 100

Ask | Provide only the value of recorded CRF2R Emax % for ZGPPISIDLPFQLLRKVIEIEKQEKEKQQATTNARLLDRV (C-terminal amide) [SEQ ID NO 351]
Reply | 97.4

Ask | Provide only the value of recorded CRF2R Emax % for ZGPPISIDLPIFLLRKVIEIEKQEKEKQQAANNALLLATI (not fully specified; C-terminal amide) [SEQ ID NO 280]
Reply | 82.3

Ask | Provide only the value of recorded CRF2R Emax % for ZGPPISIDLPLYLLRKMIEIEKQEKEKQQATTNARLLDRV (C-terminal amide) [SEQ ID NO 243]
Reply | 100

Ask | Provide only the value of recorded CRF2R Emax % for ZGPPISIDLPYQLLRKVIEIEKQEKEKQQAANNRLLLDTI (C-terminal amide) [SEQ ID NO 283]
Reply | 72
